For each of the molecules below, state its solubility kinetic.
details: buffer; pH 7.4; 200.0 µM

Known solubility kinetic results, listed for orientation:
Cc1ccc(OCCSc2nc3ccccc3n2CC(=O)O)cc1    > 51.4 µg/mL
Cc1cc(=O)[nH]c2sc(C(=O)N3c4ccccc4CC3C)c(N)c12 (stereo unspecified)    > 50.9 µg/mL

Provide reported solubility kinetic for each item, in the same order as listed.
1. O=c1[nH]cnc(O)c1C(c1cccc([N+](=O)[O-])c1)c1c(O)nc[nH]c1=O
2. COc1ccc(C(C)(C)C)cc1NC(=O)c1ccc[n+]([O-])c1
3. Cn1cc(Br)c(C(=O)N2CCCCCC2)n1
4. O=C(CSc1nnc(Nc2ccccc2)s1)NC1CCS(=O)(=O)C1 (stereo unspecified)

Key:
1. > 53.6 µg/mL
2. > 45.1 µg/mL
3. > 42.9 µg/mL
4. > 57.7 µg/mL
